# assay.summary: Half-life at 155 degrees C in DMSO
# Type: ADME
recorded.metric: half-life (h)
Numbers only, in h.

get_value(item= "COC(=O)[C@H]1NC(=O)[C@@H](c2ccc(OC)c(Br)c2)NC(=O)[C@H](NC(=O)OC(C)(C)C)c2cc(O)c(OC)c(c2)Oc2ccc(cc2[N+](=O)[O-])[C@H]1O[Si](C)(C)C(C)(C)C" , readout=half-life) returns 1.06

###

# assay.summary: Half-life at 140 degrees C in ortho dichloro benzene
# Type: ADME
# test.context: ortho-dichlorobenzene
recorded.metric: half-life (h)
Answers are plain numbers, in h.

[[record]]
input_smiles = "COC(=O)[C@H]1NC(=O)[C@@H](c2ccc(OC)c(Br)c2)NC(=O)[C@H](NC(=O)OC(C)(C)C)c2cc(O)c(OC)c(c2)Oc2ccc(cc2Cl)[C@H]1O[Si](C)(C)C(C)(C)C"
readout_units = "h"
value_observed = 53


get_value(item= "COC(=O)[C@H]1NC(=O)[C@@H](c2ccc(OC)c(Br)c2)NC(=O)[C@H](NC(=O)OC(C)(C)C)c2cc(O)c(OC)c(c2)Oc2ccc(cc2[N+](=O)[O-])[C@H]1O[Si](C)(C)C(C)(C)C" , readout=half-life) returns 9.77

Data origin: ChEMBL document CHEMBL1129822
